FYI, the data here is from patent US20240117038A1.

system-tested: T1, cynomolgus CX3CR1 (cynomolgus monkey (Macaca fascicularis), UniProt P49238 1-355 (human entry))
T1 construct: Overexpressed on CHO K1 cells; also called cyno CX3CR1; cyCX3CR1
T1 chain: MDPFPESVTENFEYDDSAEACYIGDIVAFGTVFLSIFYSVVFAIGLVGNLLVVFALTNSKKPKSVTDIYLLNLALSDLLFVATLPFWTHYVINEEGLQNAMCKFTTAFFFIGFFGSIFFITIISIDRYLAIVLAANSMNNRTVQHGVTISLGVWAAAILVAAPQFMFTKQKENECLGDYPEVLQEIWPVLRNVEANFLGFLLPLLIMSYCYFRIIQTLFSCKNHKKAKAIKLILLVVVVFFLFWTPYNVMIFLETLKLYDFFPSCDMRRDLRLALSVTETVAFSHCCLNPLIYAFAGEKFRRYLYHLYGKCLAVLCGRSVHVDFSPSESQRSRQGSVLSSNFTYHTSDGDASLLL
experimental-details: competition flow cytometry vs soluble huCX3CL1-AF647 on CHO K1 cyCX3CR1 cells, 30 uM HSA
value-kind: % inhibition (%)

[[record]]
binder = "A041600031 (VHH, Trivalent ISVD construct (two anti-CX3CR1 ISVDs, one anti-albumin ISVD), C-terminal alanine included in the entry; also called 66B02_SO (E1D)-9GS-ALB23002-9GS-54A12_SO-A) DVQLVESGGGSVQPGGSLRLSCAASGSIFSSTAMAWYRQAPGKRRDLVAAINTVGVTKYADSVKGRFTISRDNAKNTVYLQMNSLRPEDTALYYCTSDPRRGWDTRYWGQGTLVTVSSGGGGSGGGSEVQLVESGGGVVQPGGSLRLSCAASGFTFRSFGMSWVRQAPGKGPEWVSSISGSGSDTLYADSVKGRFTISRDNSKNTLYLQMNSLRPEDTALYYCTIGGSLSRSSQGTLVTVSSGGGGSGGGSEVQLVESGGGSVQPGGSLRLSCAASGSIFSSTAMAWYRQAPGKQRDLVAVISTVGITKYADSVKGRFTISRDNAKNTVYLQMNSLRPEDTALYYCTSDARRGWDTRYWGQGTLVTVSSA"
value_kind = "% inhibition"
numeric_result = 105

